# Measured Target: human acetyl-CoA carboxylase 2 (ACC2) (Homo sapiens)
# Construct: The cDNA encoding amino acids 144 to 2458 of human acetyl-CoA carboxylase 2; made in house; host or cells: Sf9 insect cells (baculovirus, pFastBac1)
# Sequence (O00763 144-2458): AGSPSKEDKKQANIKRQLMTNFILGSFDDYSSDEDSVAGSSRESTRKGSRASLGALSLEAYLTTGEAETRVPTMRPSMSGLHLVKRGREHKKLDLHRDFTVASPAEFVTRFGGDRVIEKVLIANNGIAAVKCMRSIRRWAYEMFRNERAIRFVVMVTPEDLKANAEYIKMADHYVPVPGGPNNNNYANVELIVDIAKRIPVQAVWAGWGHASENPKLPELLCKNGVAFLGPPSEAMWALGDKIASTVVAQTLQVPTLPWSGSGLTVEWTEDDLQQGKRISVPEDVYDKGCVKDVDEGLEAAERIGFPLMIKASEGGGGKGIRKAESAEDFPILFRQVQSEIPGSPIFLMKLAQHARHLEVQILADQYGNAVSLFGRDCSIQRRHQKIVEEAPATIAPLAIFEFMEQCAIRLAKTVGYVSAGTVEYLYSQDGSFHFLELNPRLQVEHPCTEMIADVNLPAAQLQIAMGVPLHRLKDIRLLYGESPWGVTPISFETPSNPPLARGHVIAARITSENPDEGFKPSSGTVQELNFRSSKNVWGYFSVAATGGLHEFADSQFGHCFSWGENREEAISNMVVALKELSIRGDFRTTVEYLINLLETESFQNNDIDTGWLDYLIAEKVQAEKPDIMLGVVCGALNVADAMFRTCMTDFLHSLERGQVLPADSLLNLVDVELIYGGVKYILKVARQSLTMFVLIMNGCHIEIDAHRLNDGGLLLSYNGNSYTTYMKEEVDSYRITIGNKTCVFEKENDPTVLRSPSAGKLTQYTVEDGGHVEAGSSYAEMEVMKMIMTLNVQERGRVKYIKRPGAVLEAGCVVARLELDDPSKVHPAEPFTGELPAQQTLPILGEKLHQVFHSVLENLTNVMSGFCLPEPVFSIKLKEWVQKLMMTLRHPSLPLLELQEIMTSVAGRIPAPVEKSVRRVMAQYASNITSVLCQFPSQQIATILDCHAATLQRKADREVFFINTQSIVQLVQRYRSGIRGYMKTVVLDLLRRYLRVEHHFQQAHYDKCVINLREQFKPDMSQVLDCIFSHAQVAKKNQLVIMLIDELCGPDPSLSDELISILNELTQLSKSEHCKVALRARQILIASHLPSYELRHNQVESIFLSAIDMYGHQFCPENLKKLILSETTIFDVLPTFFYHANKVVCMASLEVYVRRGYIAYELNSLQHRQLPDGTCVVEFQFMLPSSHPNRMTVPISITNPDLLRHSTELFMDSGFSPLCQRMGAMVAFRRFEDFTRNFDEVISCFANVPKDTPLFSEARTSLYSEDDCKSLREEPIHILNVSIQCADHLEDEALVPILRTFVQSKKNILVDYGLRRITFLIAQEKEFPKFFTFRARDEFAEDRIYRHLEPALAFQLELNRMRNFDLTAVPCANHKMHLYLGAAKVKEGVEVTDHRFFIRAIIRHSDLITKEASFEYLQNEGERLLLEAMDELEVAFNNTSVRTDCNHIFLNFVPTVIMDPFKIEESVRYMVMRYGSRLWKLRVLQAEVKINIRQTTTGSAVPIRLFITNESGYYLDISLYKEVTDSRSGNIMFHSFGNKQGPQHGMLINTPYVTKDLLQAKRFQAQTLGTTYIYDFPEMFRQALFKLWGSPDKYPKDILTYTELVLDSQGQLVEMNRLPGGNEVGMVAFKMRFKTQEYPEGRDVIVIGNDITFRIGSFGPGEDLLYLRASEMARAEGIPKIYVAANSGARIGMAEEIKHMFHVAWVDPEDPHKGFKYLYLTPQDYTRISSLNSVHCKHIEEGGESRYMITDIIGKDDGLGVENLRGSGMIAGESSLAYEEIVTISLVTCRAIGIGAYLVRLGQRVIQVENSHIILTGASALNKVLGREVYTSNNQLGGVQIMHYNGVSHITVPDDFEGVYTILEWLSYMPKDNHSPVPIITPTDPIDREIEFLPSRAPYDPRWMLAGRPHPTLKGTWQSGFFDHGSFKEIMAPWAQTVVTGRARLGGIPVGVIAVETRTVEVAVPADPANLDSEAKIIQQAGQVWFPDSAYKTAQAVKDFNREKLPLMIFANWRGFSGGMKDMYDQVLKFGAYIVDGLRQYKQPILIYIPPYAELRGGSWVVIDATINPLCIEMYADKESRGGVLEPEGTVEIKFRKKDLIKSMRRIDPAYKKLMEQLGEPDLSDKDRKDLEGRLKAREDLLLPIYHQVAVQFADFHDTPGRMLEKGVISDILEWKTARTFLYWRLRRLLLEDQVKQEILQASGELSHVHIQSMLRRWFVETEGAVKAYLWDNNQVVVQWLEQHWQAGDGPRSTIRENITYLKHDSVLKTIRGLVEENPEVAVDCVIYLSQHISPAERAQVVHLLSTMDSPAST
# Assay Protocol: Acetyl-CoA carboxylase enzyme assay (malonyl-CoA formation by LC/MS/MS)
# Type: biochemical
# Condition Info: IC50 ACC2, recombinant human ACC2 (aa 144-2458)
Experimental Readout: pIC50
Keep in mind that pIC50 stands for -log10 of concentration in molar terms.

Please supply the value of reported pIC50 for the item O=C([C@H]1CC[C@H](NS(=O)(=O)c2ccc3[nH]c(-c4ccccc4)nc3c2)CC1)N1CCC2(CC1)OCCCO2
6.39

The measured values listed here are drawn from patent US8697739B2.
